Target: BACE2 (Homo sapiens (Human), UniProt Q9Y5Z0)
Sequence (Q9Y5Z0 63-518): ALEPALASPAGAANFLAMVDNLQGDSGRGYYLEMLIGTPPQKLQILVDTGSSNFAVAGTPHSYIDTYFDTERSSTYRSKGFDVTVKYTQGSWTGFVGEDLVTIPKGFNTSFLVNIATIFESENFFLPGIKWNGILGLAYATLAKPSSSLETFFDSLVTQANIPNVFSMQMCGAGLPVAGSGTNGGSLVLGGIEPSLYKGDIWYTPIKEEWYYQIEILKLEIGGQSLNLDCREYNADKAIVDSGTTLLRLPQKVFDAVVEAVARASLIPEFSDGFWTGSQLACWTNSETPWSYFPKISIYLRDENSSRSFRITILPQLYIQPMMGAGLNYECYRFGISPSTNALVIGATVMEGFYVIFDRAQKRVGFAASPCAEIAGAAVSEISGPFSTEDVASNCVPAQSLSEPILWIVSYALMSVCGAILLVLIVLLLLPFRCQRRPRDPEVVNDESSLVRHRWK
Assay: In vitro enzymatic BACE2 FRET assay
Format: biochemical
Settings: read-out: IC50 IP (μM) BACE2 Enzyme
observable: log10(IC50) (log10 of the value in µM)

{"columns": ["molecule", "assay system", "log10(IC50)"],
 "data": [
  ["CN(C)C(=O)[C@]12C[C@H]1[C@@](C)(c1cc(/C(F)=C/c3ccc(Cl)cn3)ccc1F)N=C(N)S2", "BACE2 (Homo sapiens (Human), UniProt Q9Y5Z0)", -1.12],
  ["COC(=O)[C@H]1CCCN1C(=O)[C@]12C[C@H]1[C@@](C)(c1cc(/C=C(\\F)c3ccc(C#N)cn3)ccc1F)N=C(N)S2 [Example 130, bis(2,2,2-trifluoroacetate)]", "BACE2 (Homo sapiens (Human), UniProt Q9Y5Z0)", -0.92],
  ["CC(=O)[C@]12C[C@H]1[C@@](C)(c1cc(/C=C(\\F)c3cnc(OCC(F)(F)F)cn3)ccc1F)N=C(N)S2", "BACE2 (Homo sapiens (Human), UniProt Q9Y5Z0)", 0.11],
  ["CN(C)C(=O)[C@]12C[C@H]1[C@@](C)(c1cc(/C=C(\\F)c3ccc(C#CC4CC4)cn3)ccc1F)N=C(N)S2", "BACE2 (Homo sapiens (Human), UniProt Q9Y5Z0)", -1.21],
  ["COC[C@]12C[C@H]1[C@@](CF)(c1cc(/C=C(\\F)c3ccc(Cl)cn3)ccc1F)N=C(N)S2", "BACE2 (Homo sapiens (Human), UniProt Q9Y5Z0)", -1.38],
  ["C#CCOc1cnc(/C(F)=C/c2ccc(F)c([C@@]3(C)N=C(N)S[C@@]4(C(=O)N(C)C)C[C@H]43)c2)cn1", "BACE2 (Homo sapiens (Human), UniProt Q9Y5Z0)", -1.29],
  ["CN(C)C(=O)[C@]12C[C@H]1[C@@](C)(c1cc(/C=C(\\F)c3cnc(C#N)cn3)cnc1F)N=C(N)S2", "BACE2 (Homo sapiens (Human), UniProt Q9Y5Z0)", -1.43]
]}
